# targetOfAssay: recombinant sEH (Homo sapiens, UniProt P34913)
# Sequence (P34913 1-555): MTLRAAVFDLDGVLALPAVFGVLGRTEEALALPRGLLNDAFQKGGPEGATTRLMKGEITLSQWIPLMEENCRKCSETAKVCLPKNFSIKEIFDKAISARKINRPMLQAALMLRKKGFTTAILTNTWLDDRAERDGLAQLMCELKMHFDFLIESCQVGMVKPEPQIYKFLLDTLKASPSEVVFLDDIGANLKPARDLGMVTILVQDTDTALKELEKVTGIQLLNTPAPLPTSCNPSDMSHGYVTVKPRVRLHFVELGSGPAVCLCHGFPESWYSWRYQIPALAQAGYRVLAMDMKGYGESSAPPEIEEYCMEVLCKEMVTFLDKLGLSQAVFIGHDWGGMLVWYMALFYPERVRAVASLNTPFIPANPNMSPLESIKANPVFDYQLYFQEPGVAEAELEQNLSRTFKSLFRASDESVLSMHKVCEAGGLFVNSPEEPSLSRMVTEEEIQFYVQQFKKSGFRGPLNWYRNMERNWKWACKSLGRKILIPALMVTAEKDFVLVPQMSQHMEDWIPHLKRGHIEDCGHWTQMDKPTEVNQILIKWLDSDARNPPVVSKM
# assayExplanation: biochemical screening assay for inhibition of soluble epoxide hydrolase (fluorometric, Phome substrate)
The entries below are paired with their reported pIC50.
To interpret pIC50, take it as minus log10 of a concentration measured in moles per litre.

Task item: # pIC50 lookup, item O=C(Nc1cccc(C(F)(F)F)c1)N[C@H]1CO[C@H]2[C@@H]1OC[C@@H]2/C=C\c1ccsc1 [Example 346]
Reply: 7.21

Task item: # pIC50 lookup, item Cc1cc(C)c(O[C@H]2CO[C@H]3[C@@H]2OC[C@@H]3NC(=O)NC2CCCCC2)cn1 [Example 39]
Reply: 8.70

Task item: # pIC50 lookup, item Cc1cc(C)cc(NC(=O)NC2COC3C(C=Cc4ccsc4)COC23)c1 (stereo not shown) [Example 336]
Reply: 7.33

Task item: # pIC50 lookup, item O=C(NC1CCCCC1)N[C@H]1CO[C@H]2[C@@H]1OC[C@@H]2Oc1cccc(-n2cnnc2)c1 [Example 30]
Reply: 8.70

Values compiled from patent US9540391B2.
